Every entry's value here was drawn from ChEMBL document CHEMBL4387702.

# experiment_summary: MRT (0 to t) in Sprague-Dawley rat at 50 mg/kg, po by UHPLC-MS/MS analysis
# Format: ADME, organism-based
# run_conditions: in vivo
observed_property: MRT last (h)
# output: bare number, implied unit h

IN: // query MRT last value for entry "COc1cc(/C=C/C(=O)N2CCC/C(=C\c3cc(OC)c(OC)c(OC)c3)C2=O)ccc1OC(C)=O"
OUT: 7.8

---

# experiment_summary: MRT (0 to t) in Sprague-Dawley rat at 5 mg/kg, iv by UHPLC-MS/MS analysis
# Assay type: ADME, organism-based
# run_conditions: in vivo
observed_property: MRT last (h)
# output: bare number, implied unit h

IN: // query MRT last value for entry "COc1cc(/C=C/C(=O)N2CCC/C(=C\c3cc(OC)c(OC)c(OC)c3)C2=O)ccc1OC(C)=O"
OUT: 11.3
